# System: STING pathway
# assay: STING pathway activation in THP1-Dual cells, NFκB pathway SEAP reporter
# Format: cell-based
# particulars: Homo sapiens, NFκB pathway reporter (secreted embryonic alkaline phosphatase, QUANTI-Blue, 620 nm), 24-hour or 48-hour assay duration not specified

# compound, target or system, IC50 (µM)
data = [
    ("Nc1ncnc2c1ncn2[C@@H]1O[C@@H]2CNC(=O)N[C@H]3[C@@H](O)[C@H](n4cnc5c(N)ncnc54)O[C@@H]3CNC(=O)N[C@H]2[C@H]1O [Compound 31]", "STING pathway", 22.2),
    ("Nc1ncnc2c1ncn2[C@@H]1O[C@@H]2CNC(=S)N[C@H]3[C@@H](O)[C@H](n4cnc5c(N)ncnc54)O[C@@H]3CNC(=S)N[C@H]2[C@H]1O [Compound 30]", "STING pathway", 25.4),
]
